- Experiment Summary: Trypanosoma cruzi growth suppression in host cells – NIH3T3 host cells, beta-gal luminescence, confirmation (AID 2044);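 further: intracellular parasites grown in NIH/3T3 mouse fibroblasts as host cells; luminescent beta-galactosidase reporter signal from transgenic T. cruzi replicating inside host cells; inhibitors lower the luminescence signal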
- Assay type: functional, cell-based
Active and inactive are the calls of the source. No stated cut-off is given here; in the data, actives have a measured EC50 and inactives only a lower limit.
Assay Endpoint: EC50

The compound listed as O=[N+]([O-])c1ccc(-c2cc[nH]n2)o1 has a reported EC50 of 202 nM (active)

Record Cc1cc(C(=O)N/N=C/c2ccc(-c3ccccc3Cl)o2)[nH]n1 . Reported EC50: 1500 nM (active)

Briefly, EC50 measured for N#Cc1cc([N+](=O)[O-])ccc1Oc1cccc(/C=N/NC(=O)c2ccc(Cl)cc2)c1 : 616 nM (active)

Notebook: Cc1ccc(OCCCCNC2CCCCC2)c(C)c1 , EC50 read as 1620 nM (active)

Reported EC50 of CCCCCCCC[n+]1c(C)n(-c2ccccc2)c2ccc(NC(C)=O)cc21 : 768 nM (active)

Lab note: measured EC50 of O=C(Cn1cnc([N+](=O)[O-])c1)Nc1cc(Oc2ccc(Cl)cc2Cl)cc([N+](=O)[O-])c1 was 1110 nM (active)

Just so you know, measured EC50 for O=C(Nn1c(-c2ccncc2)nc2ccccc2c1=O)c1ccc(Br)cc1 came out at 750 nM (active)
